Recorded binding signal for the following binders
- targetDesc: T1, RBFOX1 RRM (Homo sapiens, UniProt Q9NWB1 109-208)
- T1 sequence: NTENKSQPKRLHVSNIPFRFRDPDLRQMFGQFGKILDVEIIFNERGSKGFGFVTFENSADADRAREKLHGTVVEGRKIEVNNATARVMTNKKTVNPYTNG
- protocolSummary: EMSA; HiTS-Eq, 1 nM pool, 10 min; buffer printed only for the single-RNA assays: 10 mM Tris pH 7.5, 150 mM NaCl, 3.4 mM EDTA, 0.001% NP-40, 30 C
- conditionContext: tags: His6 N-terminal (pET28a); label: 5' 32P
The full ranking holds about 16,000 sequences; the median of “ka relative to ugcaugu” is about 0.0091, and the highest 2% start at about 0.032. The sample as a whole holds a higher share of the highest values than the screen did.

So, GCAUGCA (DNA:RNA) RNA: GGGAGACCGGAAUUCAGAUUGUCCGCAUGCAUUAAAUCCCGUCGUAGCCACCA DNA 1: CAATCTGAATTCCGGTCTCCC DNA 2: TGGTGGCTACGACGGGATT ? Its binding signal was 0.751 KA relative to UGCAUGU

binding signal reported for this binder GUCCGCA (DNA:RNA) RNA: GGGAGACCGGAAUUCAGAUUGUCCGUCCGCAUUAAAUCCCGUCGUAGCCACCA DNA 1: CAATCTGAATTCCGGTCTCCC DNA 2: TGGTGGCTACGACGGGATT : 0.0155 KA relative to UGCAUGU

Just so you know, measured binding signal for UGCUUUG (DNA:RNA) RNA: GGGAGACCGGAAUUCAGAUUGUCCUGCUUUGUUAAAUCCCGUCGUAGCCACCA DNA 1: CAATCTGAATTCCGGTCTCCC DNA 2: TGGTGGCTACGACGGGATT came out at 0.0377 KA relative to UGCAUGU

get_value(item= UCCUUGC (DNA:RNA) RNA: GGGAGACCGGAAUUCAGAUUGUCCUCCUUGCUUAAAUCCCGUCGUAGCCACCA DNA 1: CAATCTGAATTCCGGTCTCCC DNA 2: TGGTGGCTACGACGGGATT , readout=binding signal) returns 0.0155 KA relative to UGCAUGU
